EC50 reference
target: TLR7 receptor (Homo sapiens, UniProt Q9NYK1); construct: PBL contain as a subpopulation plasmacytoid dendritic cells which are the natural interferon producing cells; endogenous in cells; assay: PBL/HCV replicon bioassay; conditions: concentration applied to PBL (24 h) giving 50% reduction of HCV replicon levels (luciferase) after transfer of PBL culture medium to Huh-7 replicon cells (48 h)
Sequence (Q9NYK1 27-1049): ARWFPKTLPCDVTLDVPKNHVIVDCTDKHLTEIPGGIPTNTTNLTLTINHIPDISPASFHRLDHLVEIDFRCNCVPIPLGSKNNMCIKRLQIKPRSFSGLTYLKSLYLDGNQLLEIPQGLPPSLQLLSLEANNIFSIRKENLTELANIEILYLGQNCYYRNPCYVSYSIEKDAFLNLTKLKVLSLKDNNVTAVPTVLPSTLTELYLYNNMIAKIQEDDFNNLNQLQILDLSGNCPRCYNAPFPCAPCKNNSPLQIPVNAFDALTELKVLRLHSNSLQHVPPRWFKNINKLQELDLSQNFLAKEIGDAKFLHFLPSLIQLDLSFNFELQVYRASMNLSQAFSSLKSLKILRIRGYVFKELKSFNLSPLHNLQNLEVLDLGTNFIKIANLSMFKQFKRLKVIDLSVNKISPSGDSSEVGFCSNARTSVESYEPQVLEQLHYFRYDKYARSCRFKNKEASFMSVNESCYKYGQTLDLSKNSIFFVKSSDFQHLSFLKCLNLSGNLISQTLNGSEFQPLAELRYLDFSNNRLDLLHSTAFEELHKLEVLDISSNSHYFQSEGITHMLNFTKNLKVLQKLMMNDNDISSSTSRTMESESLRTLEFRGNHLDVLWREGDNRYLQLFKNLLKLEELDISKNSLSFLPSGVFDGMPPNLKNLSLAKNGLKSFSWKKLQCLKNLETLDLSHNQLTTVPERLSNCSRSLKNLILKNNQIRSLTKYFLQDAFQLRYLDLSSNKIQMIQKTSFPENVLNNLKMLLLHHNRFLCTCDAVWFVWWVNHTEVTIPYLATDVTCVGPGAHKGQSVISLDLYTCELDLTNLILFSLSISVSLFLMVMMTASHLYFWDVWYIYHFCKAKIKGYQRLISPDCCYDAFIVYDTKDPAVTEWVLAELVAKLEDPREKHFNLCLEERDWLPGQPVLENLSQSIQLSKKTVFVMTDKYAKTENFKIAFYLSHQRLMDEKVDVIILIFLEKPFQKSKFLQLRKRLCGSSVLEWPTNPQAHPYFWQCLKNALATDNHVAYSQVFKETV
Form entry: value (nM) — number only.

Answered cases to consult:
{"columns": ["COMPOUND", "PARAMETER MEASURED", "RECORDED RESULT"],
 "data": [
  ["Nc1nc(-n2cccn2)cc2c1[nH]c(=O)n2Cc1ccccc1 [Example 83]", "EC50", 470],
  ["Cc1ccc(Cn2c(=O)[nH]c3c(N)nc(-c4ncno4)cc32)cn1 [Example 82]", "EC50", 127]
]}

# get_value(readout='EC50', item= COCCn1c(=O)[nH]c2c(N)nc(C(F)(F)F)cc21 [Example 55] )
2000

Do the same for Cc1nc(N)c2[nH]c(=O)n(Cc3ccccc3)c2c1C [Example 3] please
266

Also check COC(=O)c1cc2c([nH]c(=O)n2Cc2ccccc2)c(N)n1 [Example 4]
497

What do we get for Cc1cnn(-c2cc3c([nH]c(=O)n3Cc3ccccc3)c(N)n2)c1 [Example 86] ?
550

Moving on to the next compound: CCc1cc2c([nH]c(=O)n2Cc2ccccc2)c(N)n1 [Example 37]
786

Now try Cc1cc2c([nH]c(=O)n2Cc2ccccc2)c(N)n1 [Example 2] .
1540

Now try COCc1cc2c([nH]c(=O)n2Cc2ccccc2)c(N)n1 [Example 40] .
427
